Reference source: patent US20260258115A1

Target: T1, RSV postfusion F (postF), subtype A (respiratory syncytial virus, subtype A, UniProt P03420 26-513)
T1 construct: also called F ΔFP; Postfusion subtype A
Assay: BLI, IgG
Observable: binding result

Solved entries (count: 9):
- ADI-14401 (antibody, V domains shown, also called Ab 67) VH: QVQLVQSGGGLVKPGGSLRLSCAASGFTFSSYSMHWVRQAPGKGLEWVSSISASSSYLNYADSVKGRFTISRDNAKKSLYLQLNTLRADDTAVYYCAREDHDSGTYYLNWFDPWGQGTLVTVSS VL: QSVVTQPPSVSGAPGQRVTISCTGSSSNIGAGYDVHWYQQFPGTGPKLLIYGNSHRPSGVPDRFSGSKSGPSASLAITGLQAEDEADYYCQSYDSSLSGYVFGTGTKVTVL: no binding
- ADI-14600 (antibody, V domains shown) VH: QVQLVQSGGGLVKPGGSLRLSCAASGFSFSDYYMNWIRQAPGKGLEWVSYISSSSSYTNYADSVKGRFTISRDNAKKSLYLQMNSLRAEDTAVYYCASQTYSDYARGGAFDIWGQGTTVTVSS VL: QSVLTQPPSVSGAPGQRVTISCTGSSSNIGAGYDVHWYQQLPGTAPKLLIYGNNNRPSGVPDRFSGSKSGTSASLAITGLQAEDEADYYCQSYDSSLSGSVFGTGTKVTVL: no binding
- ADI-14394 (antibody, V domains shown, also called Ab 61) VH: EVQLLESGGGLVKPGGSLRLSCAASGFTFSSYSMNWVRQAPGKGLEWVSSISSSSSYIYYADSVKGRFTISRDNAKNSLYLQMNSLRAEDTAVYYCARGSEYYFDYWGQGTLVTVSS VL: QSVLTQPPSVSGAPGQRVTISCTGSSSNIGAGYDVHWYQQLPGTAPKLLIYGNSNRPSGVPDRFSGSKSGTSASLAITGLQAEDEADYYCQSYDSSLSVVFGGGTKVTVL: no binding
- ADI-20986 (antibody, V domains shown) VH: EVQLVESGGGLVQPGGSLRLSCVASGFTFSNYWMNWVRQAPGKGLEWVANIKEDGSEIKYVDSVKGRFTISRDNAKNSLYLQMNSLRAEDTAVYYCARTEDSSSWFVAIDYYNYMDVWGKGTTVTVSS VL: DIQVTQSPGTLSLSPGERATLSCRASQTVSSSYLAWYQQKPGQAPRLLFYGASSRATDIPDRFSASGSGTDFTLTIHRLEPEDFAVYYCQLYGRSPPYTFGQGTKVEIK: no binding
- ADI-21044 (antibody, V domains shown) VH: QVQLVQSGAELKKPGESLKISCKTSGYTFANYWIGWVRQMPGKGLEWMGIIYPGDSDTRYSPSFQGQVTFSADKSINSAYLQWHSLKASDSAIYYCARRFSPDYSDGAAPPTLSDAFDVWGQGTTVTVSS VL: DIVMTQSPSSLSASVGDRVTITCRASQNINIYLNWYQQKPGKAPKLLIYAASTLQSGVPSRFSGSGSATDFTLTISSLQPEDFATYYCQQSYRTPNDFGRGTKVDIK: no binding
- ADI-14414 (antibody, V domains shown, also called Ab 80) VH: QVQLVQSGAEVKKPGSSMKVSCKASGGSFSSYGISWLRQAPGQAPEWMGGIIPIFGTINYAQKFQGRITISADESTSTVYMELSSLRIEDTAVYYCARDGRTSPRYYGWDVWGQGTTVTVSS VL: DIRLTQSPATLSLSPGDRATLSCRASQSLYTYLSWYQQKPGQAPRLLIYDASNRATGIPARFSGSGSGTDFTLTISSLEPEDFAVYYCHYRSNWPPCTFGGGTKVDIK: no binding
- ADI-14413 (antibody, V domains shown, also called Ab 79) VH: EVQLVESGGVVVQPGGSLRLSCAASGFNFDDYSMHWVRQAPGKGLEWVSVISWDGGITYYADSVKGRFTMSRDNGKKSLYLQMNSLRTEDTAVYYCGKDGDIYSSSSAGIDYWGQGTLVTVSS VL: SYVLTQPPSASGTPGQRVIISCSGSSSNIGSHTVKWYQQLPGTAPKLLIDRNNQRPSGVPDRFSGPKSGTSASLAISGLQSEDEADYYCASWDDSLNGPVFGGGTQLTVL: no binding
- ADI-20974 (antibody, V domains shown) VH: EVQLVESGGGLVKPGGSLRLSCAASGFSFSSYQINWVRQAPGKGLEWVSSISGGSSYTDYADSIKGRFTISRDNAKKSAFLQMKSLRADDTAVYYCARALMATAGGLAFDIWGQGTMVTVSS VL: QPVLTQPPSVSGAPGQRVTISCTGSGSNIGAGYDVHWYQQVPGTAPKLLILRNTNRPSGVPDRFSGSKSGTSASLAITGLQAEDEADYYCQSYDRSLSVVFGGGTKLTVL: no binding
- ADI-14584 (antibody, V domains shown, also called Ab 113) VH: QVQLVQSGAEVKKPGASVKVSCKASGFTFTNYGTSYGITWVRQAPGQGLEWMGWINTSNGNPNYAQKLQGRVTMTADTSTSTAYMELRSLISDDTAVYYCARGHRMVRGVVPTGYYGLDVWGQGTTVTVSS VL: DIQLTQSPSSLSASVGDRVTITCRASQSISSYLNWYQQKPGKAPKLLIFAASNLQSGVPSRFSGSGSGTDFTLTISSLQPEDFATYYCQQSYITPWTFGQGTKVEIK: no binding

Next binder, please.
Problem: Can you share its binding result? I mean this binder: ADI-21032 (antibody, V domains shown, also called Ab 280) VH: EVQLVESGGGLVKPGGSLRLSCAVSGFKFSSYTMNWVRQAPGKGLEWVSSVSASSSYIFYADSVQGRFIISRDNAQNSLYLQMNSLRADDTAVYYCTRDQYGPGHYYNPAWFDPWGQGTLVTVSS VL: QPVLTQPPSASGAPGQRVTISCTGSSSNIGAGYDVHWYQQLPGTAPKVLIYGNTNRPSGIPDRFSGSKSGTSASLAIIGLQAEDEADYYCQSYDRNGSKVFGTGTKLTVL
Solution: no binding
